Molecular target: T1, PUF4 RNA-binding domain (Saccharomyces cerevisiae, UniProt P25339 537-888)
T1 sequence: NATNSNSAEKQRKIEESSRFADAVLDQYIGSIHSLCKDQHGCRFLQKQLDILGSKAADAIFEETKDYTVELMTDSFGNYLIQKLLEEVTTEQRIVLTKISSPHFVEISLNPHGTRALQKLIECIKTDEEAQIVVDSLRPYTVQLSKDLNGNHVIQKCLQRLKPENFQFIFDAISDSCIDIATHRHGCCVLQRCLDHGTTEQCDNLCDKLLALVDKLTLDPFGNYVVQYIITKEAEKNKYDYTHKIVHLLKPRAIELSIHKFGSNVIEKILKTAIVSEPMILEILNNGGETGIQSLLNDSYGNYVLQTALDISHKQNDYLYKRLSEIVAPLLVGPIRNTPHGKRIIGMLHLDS
Experiment: Mg; RNA-MaP; 20 mM Na-HEPES pH 7.4, 30 mM KOAc, 0.75 mM MgCl2, 0.1% Tween-20, 5% glycerol, 0.1 mg/mL BSA, 2 mM DTT; 25 C; 0.0125-409.6 nM protein
Settings: tags: N-His6-TEV cleaved; C-SNAP kept, Cy3B-labelled; label: tethered on chip by stalled RNA polymerase
pKd: −log10 of the molar value.

Binder	Censoring Qualifier	pKd
Id_ii_S2_P5E.3_K5.2_C5.2_[C-2T]_[T-1G]_H5.2_A5.1_F5.1_T5.2_[T11A]_[A12C] (ssRNA) RNA: UUUGAUUAAUAUGAUAUCGUUCUUUCUUGUAUAUUAUUAACUUCUUUCUCGAUAUCAUAUUAAUCUUU	=	9.24
UCUCUUUCACACUAUUAUCUCUCUU (ssRNA) [Id_ii_S1_P4E.4_K4.3_C4.2_[C-2T]_[T-1C]_H4.3_A4.1_F4.1_T4.2_[G10T]_[T11C]]	<	5.64
Id_ii_S2_P5E.2_K5.1_C5.2_H5.1_A5.1_F5.1_T5.2_[T11A] (ssRNA) RNA: UUUGAUUAAUAUGAUAUCGUUCUUUCUCUUGUAUUAUUAAAUUCUUUCUCGAUAUCAUAUUAAUCUUU	=	8.46
Ic_S2_P4E.1_K4.1_C4.1_H4.1_A4.1_[T5C]_[A6T]_F4.1_[T8C]_[A9G]_T4.1 (ssRNA) RNA: UUUGAUUAAUAUGAUAUCGUUCUUUCUUGUACUUCGUUCUUUCUCGAUAUCAUAUUAAUCUUU	=	6.96
Id_ii_S4_P3E.2_K3.1_C3.2_[T-1G]_H3.1_A3.1_F3.1_T3.2_[A10T] (ssRNA) RNA: UUUGACAACUGAUCGUUCUUUCUCGUGUAUAUAUUUUCUUUCUCGAUCAGUUGUCUUU	=	8.83
ACAAACCCUAUAUAUUACUACAAAC (ssRNA) [Id_ii_S3_P4E.3_K4.2_C4.2_[T-1C]_H4.2_A4.1_F4.1_T4.2_[G10C]]	=	7.73
